# assay.system: F508delCFTR (Homo sapiens, UniProt P13569, DEL508-508)
# Construct: expressed in transfected cells; host or cells: CFBE41o- human lung-derived epithelial cells (CFBE4lo-F508delCFTR-HRP), doxycycline-inducible
# Sequence (P13569 with tags, fused parts or gaps DEL508-508): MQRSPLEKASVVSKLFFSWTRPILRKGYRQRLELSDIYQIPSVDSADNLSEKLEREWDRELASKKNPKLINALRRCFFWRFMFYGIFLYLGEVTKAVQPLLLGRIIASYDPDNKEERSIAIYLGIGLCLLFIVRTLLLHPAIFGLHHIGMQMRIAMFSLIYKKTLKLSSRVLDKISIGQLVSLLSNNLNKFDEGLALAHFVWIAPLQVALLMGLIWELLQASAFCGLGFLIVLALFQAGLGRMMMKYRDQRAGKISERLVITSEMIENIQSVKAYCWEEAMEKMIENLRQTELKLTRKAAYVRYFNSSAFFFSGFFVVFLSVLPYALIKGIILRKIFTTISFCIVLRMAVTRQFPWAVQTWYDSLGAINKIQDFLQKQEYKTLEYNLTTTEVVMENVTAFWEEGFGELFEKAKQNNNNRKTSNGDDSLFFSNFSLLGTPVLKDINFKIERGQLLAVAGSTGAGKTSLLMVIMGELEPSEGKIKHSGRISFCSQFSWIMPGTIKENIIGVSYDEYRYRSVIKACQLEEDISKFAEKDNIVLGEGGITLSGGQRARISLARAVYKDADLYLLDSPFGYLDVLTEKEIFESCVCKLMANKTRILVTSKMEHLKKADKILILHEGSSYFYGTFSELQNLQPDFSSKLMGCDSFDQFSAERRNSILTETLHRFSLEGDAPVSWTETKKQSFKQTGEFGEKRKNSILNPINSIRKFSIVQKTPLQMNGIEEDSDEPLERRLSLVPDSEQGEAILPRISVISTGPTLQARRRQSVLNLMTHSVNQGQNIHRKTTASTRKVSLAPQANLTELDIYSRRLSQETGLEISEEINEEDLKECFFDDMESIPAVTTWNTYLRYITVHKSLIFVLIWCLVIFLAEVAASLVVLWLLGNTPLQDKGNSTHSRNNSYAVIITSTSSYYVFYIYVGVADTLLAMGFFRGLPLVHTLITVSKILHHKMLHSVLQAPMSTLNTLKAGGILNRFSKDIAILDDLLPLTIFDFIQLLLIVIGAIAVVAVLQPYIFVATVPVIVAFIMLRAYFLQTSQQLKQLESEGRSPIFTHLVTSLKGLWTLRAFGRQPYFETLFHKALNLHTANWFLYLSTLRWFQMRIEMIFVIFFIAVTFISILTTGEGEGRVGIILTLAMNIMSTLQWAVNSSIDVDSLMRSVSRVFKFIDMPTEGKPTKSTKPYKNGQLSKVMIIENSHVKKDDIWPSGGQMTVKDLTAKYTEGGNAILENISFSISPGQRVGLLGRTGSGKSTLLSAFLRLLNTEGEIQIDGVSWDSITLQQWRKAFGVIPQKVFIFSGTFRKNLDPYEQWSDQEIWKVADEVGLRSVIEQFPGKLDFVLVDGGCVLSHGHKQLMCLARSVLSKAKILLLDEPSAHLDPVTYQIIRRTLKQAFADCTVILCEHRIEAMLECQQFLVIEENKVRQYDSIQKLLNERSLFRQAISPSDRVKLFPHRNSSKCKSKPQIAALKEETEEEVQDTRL
# experimental.protocol: Cell Surface Expression-Horse Radish Peroxidase (CSE-HRP) Assay
# Type: cell-based
# cond: with co-corrector (2 μM of 3-[(2R,4R)-4-({[1-(2,2-difluoro-1,3-benzodioxol-5-yl)cyclopropyl]carbonyl}amino)-7-methoxy-3,4-dihydro-2H-chromen-2-yl]benzoic acid); read-out: EC50 (with co-corrector)
experimental.readout: EC50

Log: F508delCFTR (Homo sapiens, UniProt P13569, DEL508-508), compound COc1ccc(Cl)cc1CN[C@H]1[C@H](C(C)(C)C)[C@@H](C(=O)O)N(C(=O)C2CCCCC2)[C@H]1c1ccccc1OC [Example I-57] , EC50 = 1000 to 10000 nM

Log: F508delCFTR (Homo sapiens, UniProt P13569, DEL508-508), compound COc1ccc(C(F)(F)F)cc1CN[C@H]1[C@H](C(C)(C)C)[C@@H](C(=O)O)N(C(=O)[C@H]2CCCC(F)(F)C2)[C@H]1c1ccccc1 [III-185] , EC50 = 1000 to 10000 nM

Log: F508delCFTR (Homo sapiens, UniProt P13569, DEL508-508), compound COc1ccc(Cl)cc1CN[C@H]1[C@H](C(C)(C)C)[C@@H](C(=O)O)N(C(=O)C2CCCCC2)[C@H]1c1ncccc1OC (racemic) [Example I-40] , EC50 = > 10000 nM

Hey, just so you know, these numbers are from patent US20180099931A1.
